// reported inhibition for each item listed
Target: Serine/threonine-protein kinase PLK1 (Homo sapiens);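 note: reported values are mean PLK1 inhibition, measured as part of the GSK PKIS profiling set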
Settings: at 0.1 µM
Please respond with the number in % and leave the unit unwritten.

// known answers, use as guide
- compound: "Cc1cc(O)cc(C)c1/C=C/c1cncc(-c2nn[nH]n2)c1"
  test value: 3.41
- compound: "Fc1cccc(COc2ccc(Nc3ncnc4cc(-c5ccc[nH]5)sc34)cc2Cl)c1"
  test value: 3.81

Which inhibition value is on record for COc1cc(C)c(NC(=O)CN(C)C)cc1Nc1nc(Nc2cccc(F)c2C(N)=O)c2cc[nH]c2n1 ?
70.5

* * *

Target: Macrophage colony-stimulating factor 1 receptor (Homo sapiens);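 note: value reported is the mean inhibition of FMS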
Settings: at 0.1 µM
Reported inhibition values for the following compounds.
Field format: number, assumed %, no unit text.

Example entries begin here.
- compound: "CCc1cccc(NC(=O)Nc2ccc(Oc3ccc4nc(NC(=O)OC)[nH]c4c3)cc2)c1"
  assayed system: "Macrophage colony-stimulating factor 1 receptor (Homo sapiens)"
  measured property: "inhibition"
  test value: 44.8
- compound: "Nc1ncnc2occ(-c3ccc(NC(=O)Nc4cccc(C(F)(F)F)c4)cc3)c12"
  assayed system: "Macrophage colony-stimulating factor 1 receptor (Homo sapiens)"
  measured property: "inhibition"
  test value: 98.1
- compound: "CCN1CCC(CC(=O)Nc2n[nH]c3nc(-c4cccs4)c(Br)cc23)CC1"
  assayed system: "Macrophage colony-stimulating factor 1 receptor (Homo sapiens)"
  measured property: "inhibition"
  test value: -2.02

# lookup: inhibition of O=C1NC(=O)C(c2cccc(Cl)c2)=C1Nc1ccc(O)c(Cl)c1
5.89

Would you mind telling me what inhibition value was observed for Cn1cc(C=C2C(=O)Nc3cccnc32)c2ccccc21 ?
6.48

Reference source for all entries: ChEMBL document CHEMBL1961873
